- Tested on: Human immunodeficiency virus 1
- RUN DESCRIPTION: Antiviral activity against HIV1 3B infected in human MT4 cells assessed as inhibition of virus-induced cytopathicity measured 5 days post viral infection by MTT assay
- Type: functional, organism-based
- MEASUREMENT CONTEXT: Human immunodeficiency virus 1, 3B, MT4, 120 h
pEC50: −log10 of the molar value.
Tag: MET if measured pEC50 is not below 7, NOT MET if it is.

- COMPOUND: "Nc1ccn([C@@H]2CS[C@H](CO)O2)c(=O)n1"
  MEASURED ON: "Human immunodeficiency virus 1"
  CLASS ASSIGNMENT: "NOT MET"
- COMPOUND: "N#Cc1ccc(Nc2nccc(C(Cl)c3cccc(Cl)c3)n2)cc1 (stereo not given)"
  MEASURED ON: "Human immunodeficiency virus 1"
  CLASS ASSIGNMENT: "MET"
- COMPOUND: "Cc1cc(C(Cl)c2ccc(F)cc2)nc(Nc2ccc(C#N)cc2)n1 (stereo not given)"
  MEASURED ON: "Human immunodeficiency virus 1"
  CLASS ASSIGNMENT: "NOT MET"
- COMPOUND: "CC(C)(C)c1ccc(C(Cl)c2ccnc(Nc3ccc(C#N)cc3)n2)cc1 (stereo not given)"
  MEASURED ON: "Human immunodeficiency virus 1"
  CLASS ASSIGNMENT: "NOT MET"
- COMPOUND: "N#Cc1ccc(Nc2nccc(C(Cl)c3ccccc3)n2)cc1 (stereo not given)"
  MEASURED ON: "Human immunodeficiency virus 1"
  CLASS ASSIGNMENT: "MET"
- COMPOUND: "Cc1cnc(Nc2ccc(C#N)cc2)nc1C(Cl)c1ccc(F)cc1 (stereo not given)"
  MEASURED ON: "Human immunodeficiency virus 1"
  CLASS ASSIGNMENT: "NOT MET"
- COMPOUND: "COc1ccc(C(Cl)c2ccnc(Nc3ccc(C#N)cc3)n2)cc1 (stereo not given)"
  MEASURED ON: "Human immunodeficiency virus 1"
  CLASS ASSIGNMENT: "NOT MET"

* * *

- Test system: Human immunodeficiency virus 1
- RUN DESCRIPTION: Antiviral activity against HIV1 3B infected in human MT4 cells assessed as inhibition of virus-induced cytopathicity measured 5 days post viral infection by MTT assay
- Type: functional, organism-based
- MEASUREMENT CONTEXT: Human immunodeficiency virus 1, 3B, MT4, 120 h
pEC50: −log10 of the molar value.
Quick reference for pEC50 among some molecules
METRIC: pEC50

- MOLECULE: "CC(C)Nc1cccnc1N1CCN(C(=O)c2cc3cc(NS(C)(=O)=O)ccc3[nH]2)CC1"
  EXPERIMENTAL VALUE: 7.07
- MOLECULE: "N#Cc1ccc(Nc2nccc(C(Cl)c3ccc(Cl)cc3)n2)cc1 (stereo not drawn)"
  EXPERIMENTAL VALUE: 7.17
- MOLECULE: "Cc1cnc(Nc2ccc(C#N)cc2)nc1C(Cl)c1ccc(Br)cc1 (stereo not drawn)"
  EXPERIMENTAL VALUE: 6.96
